Reported folding stability dG unfold is given for each of the following sequences.
test: folding stability dG unfold (combined trypsin and chymotrypsin); higher = more stable

INSERT INTO results (construct_sequence, endpoint, result) VALUES
  ('SALEPGEWRKVTAEIPLPGGPLKLEIYEWPSNGHYYADIRNPGNGRPVEIPFPFDTPDDAVDEAKDFIRSAG [r14_65_TrROS]', 'folding stability dG unfold', '-0.625 kcal/mol'),
  ('SAGGLAPVYKTEDGVYLITPYNPETGELLETIPISEEDIEELSKEYGRDLTIEEIVKKLGYETEITVASAGG [r13_836_TrMRF]', 'folding stability dG unfold', '0.969 kcal/mol'),
  ('SAGGPRVEPLPLRVTYEDGVPPREVTVPLLAVTALDPETGEPVTFVNPGSLEVLAALLPPSVVSFDFSAGGS [r16_522_TrMRF]', 'folding stability dG unfold', '0.755 kcal/mol');

# ---- query sequence ----
Identify folding stability dG unfold associated with the sequence SPVLEKIRKLVEELLKKLGIEVKEGETVEIEITLPDGSTIRITFDAKTKKITVEITIDGKKVTLTLEIKPSA [r9_426_TrROS_Hall]
> 6 kcal/mol

---

test: folding stability dG unfold from chymotrypsin proteolysis; higher = more stable
endpoint: folding stability dG unfold (kcal/mol)
The answer is to be given in kcal/mol; state only the numeric part.

Field: example entries. Status: answers known.
INSERT INTO assay_data (construct_sequence, endpoint, result) VALUES
  ('SAGGSAGGSGMKRTATVVERDPATGRVLLEITDGSKTTTRVLEGPPSGRGAASSPEIDSLSLLSAGGSAGGS [r12_421_JUSTAS]', 'folding stability dG unfold', -0.169),
  ('SAPPATLTVDSVEFHPETGTLTIPFSHPAGPTASVLFRNEDGEVLEIPGTVPTATIRAEPNMRLERVFLGSA [r9_113_TrMRF]', 'folding stability dG unfold', 0.499),
  ('SAGGSAMVVVKITNPNGEKIEIEIEAETEEEAKKAAEELAKKLPKNVKVEVVKVEKVEVKDGKILKSAGGSA [r15_469_TrROS_Hall]', 'folding stability dG unfold', -0.919),
  ('SAMKYTVKLPPGAEPIQPEELAALPYVEVVEVEISDGEDGTRTLTITVSPDVPEENVEKLKEYIEKKLKSAG [r14_421_JUSTAS]', 'folding stability dG unfold', 3.17),
  ('SAGGSAGGSAGKKEKVILLPVDAEPDETPEELAKKLKELNPDVEVLGFDPETGYVLVKVPSAGGSAGGSAGG [r11_465_TrMRF]', 'folding stability dG unfold', -0.0143),
  ('PKWYEMNITINLPPDDPQKVKELKDALKKRNPDYKVKDIQFNPDDGQITINVWMPPQDQNRFQKAIKELLGS [r1_443_TrROS]', 'folding stability dG unfold', 2.31);

Identify folding stability dG unfold associated with the sequence SAGEKEVIEIEVRVTVVRRLPEDLSEEQRKALEDELEVEEVTVRVRFDLDTGRIYVEFEDGSRLEFELPSAG [r5_701_TrROS_Hall]
3.37

Identify folding stability dG unfold associated with the sequence SAGSMSSVKKVKITTTSYDPTNGAKKETSYDVTVTTTTYPATGEITRTIYFTSTGKWKVEHLPPGAPLASAG [r14_587_JUSTAS]
2.15

---

assay: folding stability dG unfold from trypsin proteolysis; higher = more stable
endpoint: folding stability dG unfold (kcal/mol)
The answer is to be given in kcal/mol; state only the numeric part.

Field: example entries. Status: answers known.
INSERT INTO assay_data (construct_sequence, endpoint, endpoint_unit, result) VALUES
  ('SAGGSAGGSAGGMTTVTTLETRPLPDGTTVTREVVTDENGTVVSTTVSRVSPEGVVTAESAGGSAGGSAGGS [r10_1014_JUSTAS]', 'folding stability dG unfold', 'kcal/mol', -0.0113),
  ('SAGGSAGGSAGGSPNPLLPPVRPKVILKDPKTGTTKTFTTEEEAKKAVESGEYTVLKIESAGGSAGGSAGGS [r10_520_JUSTAS]', 'folding stability dG unfold', 'kcal/mol', -0.0844),
  ('SALPPEEVKKLARDIMREFNPDNGFKPEDVDVDPNEGTIMVDWRMPDPNGKRHRMPFQIQVDKDGKIKISAG [r14_183_TrROS]', 'folding stability dG unfold', 'kcal/mol', -0.306),
  ('SAGGSAGGSAPKVEPHPVTFTFENAVVTVTRYRVPDEDGNPLYFTSVSVFFLDKDGKPGFVFPSAGGSAGGS [r20_13_TrMRF]', 'folding stability dG unfold', 'kcal/mol', 3.28),
  ('SAGGSAKTVSIWIPDDLPNMPIEELIKEVMKAFPPGDEIKDIDVEPWPNGGYMYTFTVNGKEVIIWSAGGSA [r15_451_TrROS]', 'folding stability dG unfold', 'kcal/mol', 1.29),
  ('SAGGSAGGPPGEPPDVKVIPIEIEHERYNPDDGEMEVETIPFPIVIAPDGTIYHGDRPIPPDDISAGGSAGG [r6_515_TrROS]', 'folding stability dG unfold', 'kcal/mol', 2.02);

Identify folding stability dG unfold associated with the sequence SAGGSAGGEKKYEVVEKKELTLEDIEKADEILVVGKDGKVFKSRDDVKAAAEKGEKITVYVVKKSAGGSAGG [r6_827_TrROS_Hall]
0.0471

Identify folding stability dG unfold associated with the sequence SAMSLTIETDGSLEDVIAALKAFLEANPNVPFIISPPNGEVKVIDLGLADKILVIPDPDGKVRITVINPSAG [r14_807_TrMRF]
1.76

Identify folding stability dG unfold associated with the sequence SAGGNLMIRVELYRPKPDPEGEWQKREVTLPMPPGEPIEELIDELRPPGWVIEIDIFDNGKPIREYYIRSAG [r5_278_TrROS]
1.76

Identify folding stability dG unfold associated with the sequence SGPAEGFEAELVEEYTLPETERVFVYRVTHPDGTEYVLVVVRNPDGTWEPVFVYRPDDPDALREALELLGSA [r9_1069_TrMRF]
3.11

Identify folding stability dG unfold associated with the sequence SGSSYLPLEDVKTEWKKNPNSDVYNYTTFLQTPSGEPISVTYDPKTGKITFNLPPGTTWRPGKKSEVKLESA [r9_509_JUSTAS]
0.124

Identify folding stability dG unfold associated with the sequence SAGGSSKLTFKDPNSDGTYSVTYDPSTGKANVTTSNGSSATISFEGDTITLLESSSVPPSPSNPTTSSAGGS [r16_687_JUSTAS]
0.123

Identify folding stability dG unfold associated with the sequence SAGMTVSTETTTFTDPAGFETTVTTLTTTHPDGSVTSTPTTTVTAVPVPPPPAPVPVDPANPDNPALLSAGG [r19_12_JUSTAS]
0.461

Identify folding stability dG unfold associated with the sequence SAGGSAGGSELPVESIETETYEDPSTGVKTVREKYPGGYVVTKTLYVPPDGPPIELPVEVRPESAGGSAGGS [r12_111_JUSTAS]
-0.0484

Identify folding stability dG unfold associated with the sequence SAVTLLSTEFVPEEGVVRLLFERPAPPDTTTFTFSVSVNGYPIESISLSVDPATNTATATATAKVPPGLSAG [r14_244_JUSTAS]
2.42

Identify folding stability dG unfold associated with the sequence SAGGSADSVTFTDPNVEEQIVIPPYVIFKYPDGSVRIIAFDDGDKAEILEEIPFVPPLEPLHPDLESAGGSA [r15_393_TrMRF]
0.84

---

assay: folding stability dG unfold from trypsin proteolysis; higher = more stable
Answer Condition not met if folding stability dG unfold is under 3 kcal/mol, and Condition met if it is 3 kcal/mol or more.

INSERT INTO results (construct_sequence, group) VALUES
  ('SAGGSAGGSSVIEVTFSDGSKALFFPGSQKVVVYNPSTKKKIVIPPGVSPETALKAIAEGKPISAGGSAGGS [r12_832_TrMRF]', 'Condition not met'),
  ('SAGGEEELKKNPDLIVIKITIRNKETGEEIEELEIVLSKEELEELLETLRKLLPPGWEIVKVEIRKLPSAGG [r13_849_TrROS_Hall]', 'Condition met'),
  ('SAGGMIVIEVETEEEALEAARELAKKLLEKLKEEGIEEVTLTVTVEVVDEKTKEVKTYTLTLTVKKPSAGGS [r8_163_TrROS_Hall]', 'Condition met'),
  ('SAGGMPPGYRVVLVTKEVETVTFEKKPGNENEYTTTPKIVPREEVVEVTSPEVLAELEAEGYEVTPASAGGS [r8_482_JUSTAS]', 'Condition not met'),
  ('SAGGSAGGMKITVEEDPATNRLTITIEVDGHTVTIVYDKDNPNKITVTVSPNMTKDEILKALKSSAGGSAGG [r6_195_TrROS_Hall]', 'Condition not met');

folding stability dG unfold >= 3 kcal/mol for SAGGSAGGSAGELTVTVTVLLEDGTAVKIEARFELDENGNLHLEVKVEVVKLPELSPEDLSAGGSAGGSAGG [r11_728_TrROS_Hall] ?
Condition met

folding stability dG unfold >= 3 kcal/mol for SAGGSAGGSAGGGMSFKKRKGSISLTLRVTLTLPNGTPATLDIELELEEETVEPVYPELESAGGSAGGSAGG [r7_926_JUSTAS] ?
Condition not met

Each recorded value in this set is attributed to the supplement of paper PMC12764529.
